Recorded values, source patent US10780090B2.

# assayed-target: recombinant human SAE enzyme (Homo sapiens (Human))
# Sequence (Q9UBT2 whole entry): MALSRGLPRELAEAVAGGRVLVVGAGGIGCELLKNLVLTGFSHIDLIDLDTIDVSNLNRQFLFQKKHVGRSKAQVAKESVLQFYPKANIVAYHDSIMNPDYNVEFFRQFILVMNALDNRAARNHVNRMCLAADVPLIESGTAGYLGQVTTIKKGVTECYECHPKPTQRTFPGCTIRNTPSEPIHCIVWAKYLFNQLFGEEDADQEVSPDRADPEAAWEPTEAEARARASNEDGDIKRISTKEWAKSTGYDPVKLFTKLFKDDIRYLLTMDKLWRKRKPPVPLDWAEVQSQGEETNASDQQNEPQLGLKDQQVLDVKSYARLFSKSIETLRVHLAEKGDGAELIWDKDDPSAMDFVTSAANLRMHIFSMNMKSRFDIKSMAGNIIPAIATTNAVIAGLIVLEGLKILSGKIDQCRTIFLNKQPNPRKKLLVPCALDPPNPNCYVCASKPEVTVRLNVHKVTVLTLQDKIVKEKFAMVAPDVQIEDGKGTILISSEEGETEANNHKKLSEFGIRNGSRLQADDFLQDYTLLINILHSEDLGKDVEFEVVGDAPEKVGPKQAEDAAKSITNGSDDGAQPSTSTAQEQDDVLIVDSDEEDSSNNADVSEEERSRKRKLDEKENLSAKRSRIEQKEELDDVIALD
# Sequence (Q9UBE0 whole entry partner): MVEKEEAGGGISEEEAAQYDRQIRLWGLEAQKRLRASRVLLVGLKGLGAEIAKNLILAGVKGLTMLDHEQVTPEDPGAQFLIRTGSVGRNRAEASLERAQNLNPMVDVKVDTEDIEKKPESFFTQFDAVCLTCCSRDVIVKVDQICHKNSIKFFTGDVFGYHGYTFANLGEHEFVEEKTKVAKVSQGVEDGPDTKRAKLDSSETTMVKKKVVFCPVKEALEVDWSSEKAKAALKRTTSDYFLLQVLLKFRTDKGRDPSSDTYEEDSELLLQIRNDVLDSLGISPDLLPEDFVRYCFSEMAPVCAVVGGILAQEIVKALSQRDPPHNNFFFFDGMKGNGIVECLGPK
# assay-protocol: SAE HTRF enzyme assay
# Assay type: biochemical
# details: Concentration 0.111 μM
I'd be grateful if you could share measured Percent Inhibition for these entries.

Query block: Find the recorded Percent Inhibition belonging to Cc1sc(C(=O)c2cncnc2NC2CC(O)C(COS(N)(=O)=O)C2)cc1C(N)c1cccc(Cl)c1 (mixture of isomers) and report it.
Result block: 98

Query block: Find the recorded Percent Inhibition belonging to NS(=O)(=O)OC[C@H]1C[C@@H](Nc2ncncc2C(=O)c2cc([C@@H]3OCCc4ccc(F)cc43)cs2)C[C@@H]1O (single isomer, unassigned) [I-267a] and report it.
Result block: 65

Query block: Find the recorded Percent Inhibition belonging to COCc1sc(C(=O)c2cncnc2N[C@@H]2C[C@H](COS(N)(=O)=O)[C@@H](O)C2)cc1C(O)c1cccc(Cl)c1 (single isomer, unassigned) [I-7a] and report it.
Result block: 96

Query block: Find the recorded Percent Inhibition belonging to CO[C@H](c1cccc(Cl)c1)c1cc(C(=O)c2cncnc2N[C@@H]2C[C@H](COS(N)(=O)=O)[C@@H](O)C2)sc1Cl (mixture of isomers) [I-90] and report it.
Result block: 97

Query block: Find the recorded Percent Inhibition belonging to NS(=O)(=O)OC[C@H]1C[C@@H](Nc2ncncc2C(=O)c2cc([C@@H](O)c3cccc(Br)c3)c(Cl)s2)C[C@@H]1O (single isomer, unassigned) [I-16b] and report it.
Result block: 98

Query block: Find the recorded Percent Inhibition belonging to Cc1sc(C(=O)c2cncnc2N[C@@H]2C[C@H](COS(N)(=O)=O)[C@@H](O)C2)cc1[C@@H]1OCCc2ccc(C3CC3)cc21 (mixture of isomers) [I-277] and report it.
Result block: 99

----------
I'd be grateful if you could share measured IC50 for these entries.
# assayed-target: recombinant human SAE enzyme (Homo sapiens (Human))
# assay-protocol: SAE HTRF enzyme assay
# Type: biochemical
# details: class symbols A/B/C

Query block: Find the recorded IC50 belonging to CC(O)(c1cccc(Cl)c1)c1ccc(C(=O)c2cncnc2NC2CC(O)C(COS(N)(=O)=O)C2)s1 (mixture of isomers) and report it.
Result block: < 10 nM

Query block: Find the recorded IC50 belonging to NS(=O)(=O)OC[C@H]1C[C@@H](Nc2ncncc2C(=O)c2cc(Cc3cccc(Br)c3)c(Cl)s2)[C@H](O)[C@@H]1O and report it.
Result block: < 10 nM

Query block: Find the recorded IC50 belonging to Cc1sc(C(=O)c2cncnc2N[C@@H]2C[C@H](COS(N)(=O)=O)[C@@H](O)C2)cc1[C@H]1OCC(F)(F)c2ccc(Cl)nc21 (single isomer, unassigned) [I-260b] and report it.
Result block: < 10 nM

Query block: Find the recorded IC50 belonging to NS(=O)(=O)OC[C@H]1C[C@@H](Nc2ncncc2C(=O)c2cc([C@@]3(C4=CCCCC4)CCCO3)cs2)C[C@@H]1O (mixture of isomers) and report it.
Result block: < 10 nM

Query block: Find the recorded IC50 belonging to NS(=O)(=O)OC[C@H]1C[C@@H](Nc2ncncc2C(=O)c2cc([C@@]3(C4CC4)CCCO3)cs2)C[C@@H]1O (mixture of isomers) and report it.
Result block: 100 to 1000 nM

Query block: Find the recorded IC50 belonging to CCc1ccccc1OCc1csc(C(=O)c2cncnc2N[C@@H]2C[C@H](COS(N)(=O)=O)[C@@H](O)C2)c1 and report it.
Result block: 10 to 100 nM

Query block: Find the recorded IC50 belonging to NS(=O)(=O)OC[C@H]1C[C@@H](Nc2ncncc2C(=O)c2cc(Cn3cnc(Br)c3)cs2)C[C@@H]1O and report it.
Result block: 100 to 1000 nM

Query block: Find the recorded IC50 belonging to NS(=O)(=O)OC[C@H]1C[C@@H](Nc2ncncc2C(=O)c2cc(CN3CC=CC3)cs2)C[C@@H]1O and report it.
Result block: 100 to 1000 nM

Query block: Find the recorded IC50 belonging to Cc1oc(C(=O)c2cncnc2N[C@@H]2C[C@H](COS(N)(=O)=O)[C@@H](O)C2)cc1[C@@H]1OCCc2ccc(Cl)cc21 (single isomer, unassigned) [I-270b] and report it.
Result block: < 10 nM

Query block: Find the recorded IC50 belonging to NS(=O)(=O)OC[C@H]1C[C@@H](Nc2ncncc2C(=O)c2cc([C@@H]3OCCc4ccccc43)cs2)C[C@@H]1O (single isomer, unassigned) [I-254b] and report it.
Result block: < 10 nM

Query block: Find the recorded IC50 belonging to NS(=O)(=O)OC[C@H]1C[C@@H](Nc2ncncc2C(=O)c2cc([C@@]3(C4CCCCC4)CCCO3)cs2)C[C@@H]1O (mixture of isomers) and report it.
Result block: 10 to 100 nM

Query block: Find the recorded IC50 belonging to NS(=O)(=O)OC[C@H]1C[C@@H](Nc2ncncc2C(=O)c2cc(Cl)c([C@H](O)c3cccc(Cl)c3)s2)C[C@@H]1O (single isomer, unassigned) [I-151b] and report it.
Result block: < 10 nM
